Recorded growth for the following compounds
System: RXF 393 renal
ASSAY: NCI-60 one-dose screen, 48 h (100 = growth as untreated, 0 = no growth, -100 = all killed)
ASSAY_CONDITIONS: 10 µM unless noted
Protocol: Cells are grown in 96 well plates and exposed to the test compound for 48 hours. Compounds are tested at a single concentration, which is 10^-5 M for most compounds. The reported endpoint is percent growth (GI% or GIPRCNT), where numbers from 0 - 100% represent growth inhibition, and numbers from -100% - 0 represent cell death. For example, a value of 40 represents 60% growth inhibition. A value of 0 means no net growth occurred over the course of the experiment. […]
About 83,000 compounds went through this panel and 20% of them were active in at least one assay; those are over-represented in the sample as a whole. Active and inactive are the calls of the source. The calls were made as follows: active = growth percent below 10; inactive = the rest.
OBSERVED_PROPERTY: growth

>  <COMPOUND>
Cc1cnc(N)s1

>  <OBSERVED_MEASUREMENT>
105% (inactive)

$$$$
>  <COMPOUND>
O=[N+]([O-])c1ccc(N/N=C/C2CCCCCC2)c([N+](=O)[O-])c1

>  <OBSERVED_MEASUREMENT>
98% (inactive)

$$$$
>  <COMPOUND>
CCNC1=CC(=O)c2ncccc2C1=O

>  <OBSERVED_MEASUREMENT>
99% (inactive)

$$$$
>  <COMPOUND>
CCC/C(=N/NC(N)=O)c1ccco1

>  <OBSERVED_MEASUREMENT>
105% (inactive)

$$$$
>  <COMPOUND>
CCN(CC)C(=S)SCCO

>  <OBSERVED_MEASUREMENT>
106% (inactive)

$$$$
>  <COMPOUND>
CCCC(=O)Oc1ccc2ccccc2c1

>  <OBSERVED_MEASUREMENT>
112% (inactive)

$$$$
>  <COMPOUND>
CCOC(=O)c1ccc(C(=N)N)cc1

>  <OBSERVED_MEASUREMENT>
95.4% (inactive)

$$$$
>  <COMPOUND>
O=c1[nH]c(=O)c2[nH]c(=O)[nH]c2[nH]1

>  <OBSERVED_MEASUREMENT>
84.6% (inactive)

$$$$
>  <COMPOUND>
COC(=O)c1ccccc1Cl

>  <OBSERVED_MEASUREMENT>
121% (inactive)

$$$$
>  <COMPOUND>
OCc1ccccc1F

>  <OBSERVED_MEASUREMENT>
77.5% (inactive)

$$$$
>  <COMPOUND>
COC(=O)c1nc(=S)[nH]c(C(=O)OC)c1C(=O)c1ccccc1

>  <OBSERVED_MEASUREMENT>
99.2% (inactive)

$$$$
>  <COMPOUND>
C=CCN1C(=O)c2ccccc2C1=O

>  <OBSERVED_MEASUREMENT>
104% (inactive)

$$$$
>  <COMPOUND>
CCOC(=O)C1=C(C)NC(C)=C(C(=O)OCC)C1

>  <OBSERVED_MEASUREMENT>
103% (inactive)

$$$$
>  <COMPOUND>
O=C1c2cccnc2-c2ncccc21

>  <OBSERVED_MEASUREMENT>
109% [100 µM] (inactive)

$$$$
>  <COMPOUND>
NNc1ncnc2cccc(Cl)c12

>  <OBSERVED_MEASUREMENT>
103% (inactive)

$$$$
>  <COMPOUND>
CC(=O)Nc1ccc2oc(=O)ccc2c1

>  <OBSERVED_MEASUREMENT>
103% (inactive)

$$$$
>  <COMPOUND>
O=C1C=CC(=O)N1Cc1ccco1

>  <OBSERVED_MEASUREMENT>
68.6% (inactive)

$$$$
>  <COMPOUND>
OCCCc1ccccc1

>  <OBSERVED_MEASUREMENT>
105% (inactive)

$$$$
>  <COMPOUND>
Cc1ccc(NC(=S)N/C=C(\c2ccccc2)S(=O)Cc2ccccc2)c(C)c1 (stereo not given)

>  <OBSERVED_MEASUREMENT>
106% (inactive)

$$$$
>  <COMPOUND>
C/C=C(/C(=O)NC(N)=O)C(C)C

>  <OBSERVED_MEASUREMENT>
171% (inactive)

$$$$
>  <COMPOUND>
Cc1ccc(S(=O)(=O)n2ccnc2)cc1

>  <OBSERVED_MEASUREMENT>
96.2% (inactive)

$$$$
>  <COMPOUND>
CCN(CC)CCO/N=C1\CC(c2ccc(OC)c(OC)c2)Oc2ccccc21 (stereo not given)

>  <OBSERVED_MEASUREMENT>
65.5% (inactive)

$$$$
>  <COMPOUND>
COc1ccc(CCO)cc1

>  <OBSERVED_MEASUREMENT>
105% (inactive)

$$$$
>  <COMPOUND>
NCCSSC/C=C\CSSCCN

>  <OBSERVED_MEASUREMENT>
102% (inactive)

$$$$
>  <COMPOUND>
CCOC(=N)c1ccc(C(=N)OCC)cc1

>  <OBSERVED_MEASUREMENT>
112% (inactive)

$$$$

Each recorded value in this set is attributed to PubChem BioAssay (NCI).
